Where these numbers come from: the supplement of paper PMC6089552

- Tested on: A673/TR/shEF
- Assay Notes: cell viability (LOESS-normalised, relative to median of negative controls) (log2 ratio); higher = more viable cells (less compound effect), active = hit call of the paper (over 3 MAD below the median)
- Test Settings: 0.25 µM; library screen: screen1; EWS-FLI1 expression: high (no doxycycline); treatment time: 72 h
Screen size: about 3,200 compounds; about 300 (9.4%) showed activity. The sample as a whole holds a higher share of actives than the screen did.
Readout Name: cell viability (log2)
Answers are plain numbers.

Solved cases (10 shown):
INSERT INTO assay_data (compound, obs_value) VALUES
  ('C/C=C/c1ccc2c(c1)OCO2', 0.0443),
  ('CN1[C@H]2CC(OC(=O)C(CO)c3ccccc3)C[C@H]1[C@H]1O[C@H]12 (stereo partly specified)', 0.0614),
  ('CC1(C)C(=O)C=C[C@]2(C)C1=C(O)C(=O)[C@@]1(C)[C@H]2CC[C@]2(C)[C@@H](c3ccoc3)C[C@@H]3O[C@]312', 0.0131),
  ('N#CC(C#N)=Cc1ccc(O)cc1', 0.0596),
  ('ClC1=C(Cl)[C@]2(Cl)[C@@H]3[C@@H]4C[C@@H]([C@H]5O[C@@H]45)[C@@H]3[C@@]1(Cl)C2(Cl)Cl', 0.163),
  ('CCCC(C)C1(CC)C(=O)NC(=S)NC1=O (stereo unspecified)', 0.047),
  ('CN=C1CN(O)C(c2ccccc2)=c2cc(Cl)ccc2=N1', 0.0853),
  ('COc1ccc(C(=O)O)cc1OC', 0.0171),
  ('N#CC(C#N)=Cc1cc(O)c(O)c(O)c1', 0.0608),
  ('C[C@@H]1CC[C@@]2(OC1)O[C@H]1[C@@H](O)[C@H]3[C@@H]4CC[C@H]5C[C@@H](O[C@@H]6O[C@H](CO)[C@H](O[C@@H]7O[C@H](CO)C(O)[C@H](O[C@@H]8OC[C@@H](O)[C@H](O)[C@H]8O)[C@H]7O[C@@H]7O[C@H](CO)[C@H](O)[C@H](O[C@@H]8O[C@H](CO)[C@@H](O)[C@H](O)[C@H]8O)[C@H]7O)[C@H](O)[C@H]6O)[C@H](O)C[C@]5(C)[C@H]4CC[C@]3(C)[C@H]1[C@@H]2C (stereo partly specified)', 0.0473);

Next compound, cell viability (log2) to be filled in.
Problem: Tell me the measured cell viability (log2) of COc1c2c(cc3c1OCO3)CC[N+](C)=C2 , please.
Solution: 0.122
